Hey, just so you know, these numbers are from the RNAGym collection of RNA variant scans (doi:10.7554/elife.90254).

B1: LINE1-mini (parent)
chain: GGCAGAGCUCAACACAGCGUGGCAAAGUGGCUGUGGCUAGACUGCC

Variants of: B1
Test: self-cleavage, relative activity (ratio to wild type); higher = more cleavage; in vitro, sequencing; the parent is a self-cleaving ribozyme
# cutoff 0.2 applies to self-cleavage; >= gives true (1), < gives false (0)

{"Change": "G29A C46G", "Assigned class": "true (1)"}
{"Change": "C3A U43C", "Assigned class": "true (1)"}
{"Change": "U20C C46A", "Assigned class": "true (1)"}
{"Change": "G2U G21C", "Assigned class": "false (0)"}
{"Change": "U9C U38G", "Assigned class": "false (0)"}
{"Change": "A26C G44C", "Assigned class": "true (1)"}
{"Change": "G33C U43A", "Assigned class": "false (0)"}
{"Change": "C10U C13U", "Assigned class": "false (0)"}
{"Change": "A4G U43C", "Assigned class": "true (1)"}
{"Change": "A16U G36U", "Assigned class": "false (0)"}
{"Change": "G29C C37U", "Assigned class": "false (0)"}
{"Change": "A14G G44A", "Assigned class": "true (1)"}
{"Change": "U20G C37A", "Assigned class": "false (0)"}
{"Change": "A11C A39G", "Assigned class": "false (0)"}
{"Change": "G1C A6C", "Assigned class": "false (0)"}
{"Change": "A41C C45G", "Assigned class": "false (0)"}
{"Change": "G17U A41C", "Assigned class": "false (0)"}
{"Change": "C3A G21C", "Assigned class": "true (1)"}
{"Change": "G5U C8U", "Assigned class": "true (1)"}
